Reported GI50 by item:
Test system: HOP-92
measurement.notes: NCI tumour cell line growth inhibition, 48 h
Activity calls are given as the source filed them. Cut-off read from the data, not from the text of the source: active = GI50 up to about 1.1 µM and inactive = higher.
quantity.measured: GI50

- compound: "O=C1C(C(O)(C(F)(F)Cl)C(F)(F)Cl)CCCC1C(O)(C(F)(F)Cl)C(F)(F)Cl (stereo unspecified)"
  test.value: "5.11 µM (inactive)"
- compound: "Cc1cc(S(=O)(=O)Nc2nc3ccccc3nc2-c2cccc([N+](=O)[O-])c2)c(S)cc1Cl"
  test.value: "17.9 µM (inactive)"
- compound: "COc1cc(Nc2cnc3cc(F)c(F)cc3n2)cc(OC)c1OC"
  test.value: "> 100 µM (inactive)"
- compound: "Clc1ccc(SCCSCCCCCCCCCCSCCSc2ccc(Cl)cc2)cc1"
  test.value: "> 100 µM (inactive)"
- compound: "CCC(=O)/C=C/c1ccccc1"
  test.value: "> 100 µM (inactive)"
- compound: "CC(C)(C)OC(=O)N(CCCCNCc1ccc2ccccc2c1)CCCNCc1ccc2ccccc2c1"
  test.value: "1.64 µM (inactive)"

* * *

Tested on: SF-268
measurement.notes: NCI tumour cell line growth inhibition, 48 h
The source made the active and inactive calls. Cut-off read from the data, not from the text of the source: active = GI50 up to about 1.1 µM and inactive = higher.
Possible outcomes: y (active), n (inactive)

- compound: "Cc1ccc(CCCCCOc2ccc(C3=NCCO3)cc2)s1"
  assigned.category: "n"
- compound: "Clc1ccc(SCCSCCCCCCCCCCSCCSc2ccc(Cl)cc2)cc1"
  assigned.category: "n"
- compound: "CCOC(=O)c1nc2cc(N3CCOCC3)c(F)cc2[nH]c1=O"
  assigned.category: "n"
- compound: "CC(C)(Br)C(=O)/C=C/c1ccccc1"
  assigned.category: "n"
- compound: "O[C@]12C=C(c3nccc4c3[nH]c3ccccc34)[C@@H]3CCN(CCCC/C=C\\CC1)C[C@@]31CC3/C=C\\CCCCN3[C@H]12 (stereo not given in full)"
  assigned.category: "y"
- compound: "Cc1ccc([N+](=O)[O-])cc1NC(=O)C(=O)Cc1cc(=O)oc2cc(O)ccc12"
  assigned.category: "n"
- compound: "Cc1cc(Cl)ccc1NC(=O)/C(CC(=O)CC(c1ccccc1)c1c(O)c2ccccc2oc1=O)=N\\O (stereo not given)"
  assigned.category: "n"
- compound: "N#CCCSC1SC(=C2SC3=C(SCCS3)S2)SC1SCCC#N (stereo not given)"
  assigned.category: "n"
- compound: "Cc1nc(=O)n2c(c1C(=O)Nc1ccc(Cl)cc1)NCCC2"
  assigned.category: "n"
- compound: "C/C1=C/C(=O)O[C@@H]2C[C@@H](CC[C@H](C)/C=C\\C=C\\CC1)O[C@@](O)([C@@H]1CSC(=O)N1)C2"
  assigned.category: "y"

* * *

Reported GI50 by item:
Tested on: MOLT-4
measurement.notes: NCI tumour cell line growth inhibition, 48 h
Activity calls are given as the source filed them. No stated cut-off is given here; in the data, active = GI50 up to about 1.1 µM and inactive = higher.
quantity.measured: GI50

- compound: "CC(=O)c1ccc(NC(=O)C(=O)C(C#N)CC(C)(C)C=O)cc1 (stereo unspecified)"
  quantity.measured: "GI50"
  test.value: "> 100 µM (inactive)"
- compound: "O=S(=O)(NC1OCCCC1I)c1ccccc1 (stereo unspecified)"
  quantity.measured: "GI50"
  test.value: "> 100 µM (inactive)"
- compound: "COc1cccc2nc3ccccc3nc12"
  quantity.measured: "GI50"
  test.value: "60.8 µM (inactive)"
- compound: "Cc1cc(C)n(C2OC(CO)C(O)C(O)C2O)c(=S)c1C#N (stereo unspecified)"
  quantity.measured: "GI50"
  test.value: "> 100 µM (inactive)"
- compound: "Nc1nc(SCC(=O)O)nc(O)c1N"
  quantity.measured: "GI50"
  test.value: "37.6 µM (inactive)"
- compound: "COc1cc(Nc2cc(Cl)cc(Cl)c2)nc(N)n1"
  quantity.measured: "GI50"
  test.value: "16.6 µM (inactive)"

* * *

Reported GI50 by item:
Tested on: OVCAR-3
measurement.notes: NCI tumour cell line growth inhibition, 48 h
Calls of active or inactive are those of the source. No stated cut-off is given here; in the data, active = GI50 up to about 1.1 µM and inactive = higher.

- compound: "C=C(C(=C)P(=S)(c1ccccc1)c1ccccc1)P(=S)(c1ccccc1)c1ccccc1"
  GI50: "> 100 µM (inactive)"
- compound: "CCOc1ccc(NC(=O)/C=C/c2ccco2)cc1"
  GI50: "> 10 µM (inactive)"
- compound: "C=CCOC(=O)C1=C(CCC[C@@H](C)O[Si](C)(C)C(C)(C)C)N=C(N)N2[C@H](CCO)CC[C@@H]12"
  GI50: "11.1 µM (inactive)"
- compound: "CC1(C)CC(=O)c2c(nc3ccc4ccccc4c3c2-c2ccc(NC(=O)CCCC(=O)Nc3ccc(-c4c5c(nc6ccc7ccccc7c46)CC(C)(C)CC5=O)cc3)cc2)C1"
  GI50: "> 100 µM (inactive)"
- compound: "O=C1/C(=C/c2ccccc2)CN(C(=O)Oc2ccc(Cl)cc2)C/C1=C\\c1ccccc1"
  GI50: "3.42 µM (inactive)"
- compound: "O=C1OC[C@H]2[C@@H]1[C@H]1O[C@@H]2C2=C(CCC2)C1=O"
  GI50: "> 100 µM (inactive)"
- compound: "COc1cc2c(cc1OC)C(Cl)C(c1ccc(Cl)cc1)=C2Cl (stereo not given)"
  GI50: "16.5 µM (inactive)"
- compound: "CCOC(=O)C1(Br)C(c2ccccc2)NC(=O)NC1(C)Br (stereo not given)"
  GI50: "62.5 µM (inactive)"
- compound: "C[C@@H]1[C@@H](C)C(c2ccccc2)O[Si]1(C(C)(C)C)C(C)(C)C (stereo not given in full)"
  GI50: "16.5 µM (inactive)"
- compound: "O=C1CCCCc2cccc(O)c21"
  GI50: "> 100 µM (inactive)"
- compound: "C=CCCC12CCCC(=O)C1Sc1ccc3ccccc3c12 (stereo not given)"
  GI50: "13.6 µM (inactive)"
- compound: "Cc1[nH]n(-c2nc(-c3ccccc3)cc(=O)[nH]2)c(=O)c1CCO"
  GI50: "> 100 µM (inactive)"
- compound: "COC(=O)[C@H](C)NC(=O)C1(CNC(=O)[C@H](C)NC(=O)OC(C)(C)C)Cc2ccccc2-c2ccccc2C1"
  GI50: "17.5 µM (inactive)"
- compound: "O=C(Nc1nc(C23CC4CC(CC(C4)C2)C3)cs1)c1cc2cc([N+](=O)[O-])ccc2oc1=O"
  GI50: "73.3 µM (inactive)"
- compound: "O=C(CSSCC(=O)Nc1ccc(Br)cc1)Nc1ccc(Br)cc1"
  GI50: "18.1 µM (inactive)"
- compound: "COc1cc(OC)c2c(c1)C(=O)C(CC1(C)OCCCO1)=CC2=O"
  GI50: "8.55 µM (inactive)"
- compound: "CC(=O)N1C(CCc2ccccc2)CC(C)(C=O)C1Cc1ccc(O[Si](C(C)C)(C(C)C)C(C)C)cc1 (stereo not given)"
  GI50: "4.8 µM (inactive)"
- compound: "Cc1cccc(C)c1NC(=O)CCC(=O)NC(N)=S"
  GI50: "> 100 µM (inactive)"
- compound: "O=C1c2ccccc2C(=O)N1CC1S(=O)(=O)OCCOS1(=O)=O"
  GI50: "> 100 µM (inactive)"
- compound: "C[NH+]1[C@@H](Cc2ccccc2)C(=O)O[B-]1(F)c1ccccc1 (stereo not given in full)"
  GI50: "> 100 µM (inactive)"

* * *

Tested on: MDA-MB-435
measurement.notes: NCI tumour cell line growth inhibition, 48 h
Active and inactive are the calls of the source. Cut-off read from the data, not from the text of the source: active = GI50 up to about 1.1 µM and inactive = higher.
Reported GI50 by item:
quantity.measured: GI50

- given.smiles: "C[n+]1ccn2c3nc4ccccc4nc3c([O-])c(C#N)c21"
  quantity.measured: "GI50"
  test.value: "> 100 µM (inactive)"
- given.smiles: "C/C1=C/C(=O)O[C@@H]2C[C@@H](CC[C@H](C)/C=C\\C=C\\CC1)O[C@@](O)([C@@H]1CSC(=O)N1)C2"
  quantity.measured: "GI50"
  test.value: "0.44 µM (active)"
- given.smiles: "Cc1ccc(/C=N/n2c(=O)[nH]c3ccccc3c2=O)cc1"
  quantity.measured: "GI50"
  test.value: "> 100 µM (inactive)"

* * *

Test system: EKVX
measurement.notes: NCI tumour cell line growth inhibition, 48 h
Activity calls are given as the source filed them. Cut-off read from the data, not from the text of the source: active = GI50 up to about 1.1 µM and inactive = higher.
Possible outcomes: active, inactive

- molecule: "COc1cc2c(c3nc4ccccc4nc13)-c1ccc(SC)c(=O)cc1[C@@H](NC(C)=O)CC2"
  assigned.category: "active"
- molecule: "CCCCCCCCCCCCOCCCCCCCCC/C=C/c1ccc2c(c1)OCCOCCOCCOCCO2"
  assigned.category: "inactive"
- molecule: "NC(=S)Nc1nc(=S)[nH]c2c1SC1=N/C(=C\\c3ccco3)C(=O)N12"
  assigned.category: "inactive"
- molecule: "CCCC(C)c1c(Cl)nc(Cl)nc1Cl (stereo not drawn)"
  assigned.category: "inactive"
- molecule: "O=C(OC1C#CCSCC#C/C=C\\1)c1ccc2c(c1)C(=O)c1ccccc1C2=O (stereo not drawn)"
  assigned.category: "inactive"
- molecule: "c1ccc2c(c1)-c1ccccc1C2N1CC2CCC(CC2)C1"
  assigned.category: "inactive"
- molecule: "Cc1ccc(/N=N/c2c(O)c(C(=O)O)cc3ccccc23)c(S(=O)(=O)O)c1"
  assigned.category: "inactive"
- molecule: "COc1ccc(Cc2nc3cc(Cl)ccc3o2)cc1"
  assigned.category: "inactive"
